Hey, just so you know, these numbers are from ChEMBL document CHEMBL1137935.

- protocol details: Plasma clearance after IV dosing at 0.5 mg/kg in rat
- Type: ADME, organism-based
- Set-up: dose 0.5 mg/kg, route intravenous
- measurement conditions: read-out: Clp

{"compound": "OC1[C@@H](O)C(n2cnc3c(NC4CCOC4)ncnc32)O[C@@H]1COc1ccccc1F (single isomer, unassigned)", "uom": "mL/min/kg", "clearance": 202}

* * *

- protocol details: Cmax after oral administration at a dose of 4 mg/kg in rat
- Assay type: ADME, organism-based
- Parameters: dose 4 mg/kg, route oral
- measurement conditions: in vivo

{"compound": "OC1[C@@H](O)C(n2cnc3c(NC4CCOC4)ncnc32)O[C@@H]1CSc1ccccc1F (single isomer, unassigned)", "Cmax": "107 ng/mL"}

* * *

- protocol details: Bioavailability after oral administration at a dose of 2 mg/kg in rat
- Assay type: ADME, organism-based
- measurement conditions: in vivo
recorded endpoint: bioavailability (%)

{"compound": "OC1[C@@H](O)C(n2cnc3c(NC4CCOC4)ncnc32)O[C@@H]1COc1ccccc1F (single isomer, unassigned)", "value": 81}

* * *

- protocol details: Elimination half-life after oral administration at a dose of 4 mg/kg in rat
- Format: ADME, organism-based
- Set-up: dose 4 mg/kg, route oral
- measurement conditions: in vivo

{"compound": "OC1[C@@H](O)C(n2cnc3c(NC4CCOC4)ncnc32)O[C@@H]1CSc1ccccc1F (single isomer, unassigned)", "half-life / h": 1.3}

* * *

- study system: Adenosine receptor A1 (Cavia porcellus) (UniProt P47745)
- Sequence (P47745 whole entry): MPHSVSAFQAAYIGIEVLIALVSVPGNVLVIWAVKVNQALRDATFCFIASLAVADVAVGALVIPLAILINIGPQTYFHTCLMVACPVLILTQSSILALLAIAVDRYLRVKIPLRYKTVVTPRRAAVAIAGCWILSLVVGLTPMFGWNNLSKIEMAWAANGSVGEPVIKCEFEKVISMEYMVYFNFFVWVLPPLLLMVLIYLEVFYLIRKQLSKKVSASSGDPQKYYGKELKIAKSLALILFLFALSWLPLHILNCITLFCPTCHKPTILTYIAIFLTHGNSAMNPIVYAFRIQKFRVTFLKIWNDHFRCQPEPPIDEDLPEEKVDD
- protocol details: Binding affinity against […] using [35S]GTP-gamma-S, radioligand in guinea pig.
- Format: functional
recorded endpoint: efficacy relative to CPA (%)

{"molecule": "Cc1cc(COC[C@H]2OC(n3cnc4c(NC5CCOC5)ncnc43)[C@H](O)C2O)no1 (single isomer, unassigned)", "uom": "%", "value": 84}
{"molecule": "O[C@@H]1[C@@H](CSc2nccs2)OC(n2cnc3c(NC4CCCC4)ncnc32)[C@@H]1O (stereo not given in full)", "uom": "%", "value": 105}
{"molecule": "Cc1cccc(C)c1SC[C@H]1OC(n2cnc3c(NC4CCOC4)ncnc32)[C@H](O)C1O (single isomer, unassigned)", "uom": "%", "value": 12}
{"molecule": "OC1[C@@H](O)C(n2cnc3c(NC4CCOC4)ncnc32)O[C@@H]1CSc1ncccn1 (single isomer, unassigned)", "uom": "%", "value": 89}
{"molecule": "OC1[C@@H](O)C(n2cnc3c(NC4CCOC4)ncnc32)O[C@@H]1COc1ccccc1Cl (single isomer, unassigned)", "uom": "%", "value": 62}
{"molecule": "OC1[C@@H](O)C(n2cnc3c(NC4CCOC4)ncnc32)O[C@@H]1CSc1ccccn1 (single isomer, unassigned)", "uom": "%", "value": 110}
{"molecule": "OC1[C@@H](O)C(n2cnc3c(NC4CCOC4)ncnc32)O[C@@H]1CSc1nccs1 (single isomer, unassigned)", "uom": "%", "value": 106}
{"molecule": "OC1[C@@H](O)[C@H](n2cnc3c(NC4CCOC4)ncnc32)O[C@@H]1CSc1ccc(F)cc1F (single isomer, unassigned; 19)", "uom": "%", "value": 86}
{"molecule": "OC1[C@@H](O)C(n2cnc3c(NC4CCOC4)ncnc32)O[C@@H]1CSc1nc2ccc(Cl)cc2o1 (single isomer, unassigned)", "uom": "%", "value": 99}
{"molecule": "O[C@@H]1[C@@H](CSc2ccccc2F)OC(n2cnc3c(NC4CCCC4)ncnc32)[C@@H]1O (stereo not given in full)", "uom": "%", "value": 90}
{"molecule": "OC1[C@@H](O)C(n2cnc3c(NC4CCOC4)ncnc32)O[C@@H]1COCc1ccccc1 (single isomer, unassigned)", "uom": "%", "value": 98}
{"molecule": "Cc1cccc(Cl)c1SC[C@H]1OC(n2cnc3c(NC4CCOC4)ncnc32)[C@H](O)C1O (single isomer, unassigned)", "uom": "%", "value": 18}
{"molecule": "COc1ccc2nc(SC[C@H]3OC(n4cnc5c(NC6CCCC6)ncnc54)[C@H](O)[C@@H]3O)sc2c1 (stereo not given in full)", "uom": "%", "value": 105}
{"molecule": "OC1[C@@H](O)C(n2cnc3c(NC4CCOC4)ncnc32)O[C@@H]1CSc1nc2ccccc2s1 (single isomer, unassigned)", "uom": "%", "value": 100}
{"molecule": "Cn1ccnc1SC[C@H]1OC(n2cnc3c(NC4CCCC4)ncnc32)[C@H](O)[C@@H]1O (stereo not given in full)", "uom": "%", "value": 112}
{"molecule": "OC1[C@@H](O)C(n2cnc3c(NC4CCOC4)ncnc32)O[C@@H]1COc1ccccc1F (single isomer, unassigned)", "uom": "%", "value": 78}
{"molecule": "OC1[C@@H](O)[C@H](n2cnc3c(NC4CCOC4)ncnc32)O[C@@H]1CSc1ccc(F)cc1F (single isomer, unassigned; 26)", "uom": "%", "value": 88}
{"molecule": "OC1[C@@H](O)C(n2cnc3c(NC4CCOC4)ncnc32)O[C@@H]1CSc1ccccc1Cl (single isomer, unassigned)", "uom": "%", "value": 74}
{"molecule": "Cc1ccccc1SC[C@H]1OC(n2cnc3c(NC4CCOC4)ncnc32)[C@H](O)C1O (single isomer, unassigned)", "uom": "%", "value": 81}
{"molecule": "OC1[C@@H](O)C(n2cnc3c(NC4CCOC4)ncnc32)O[C@@H]1CSc1cccc(F)c1 (single isomer, unassigned)", "uom": "%", "value": 84}
{"molecule": "Cc1ccccc1OC[C@H]1OC(n2cnc3c(NC4CCOC4)ncnc32)[C@H](O)C1O (single isomer, unassigned)", "uom": "%", "value": 61}
{"molecule": "OC1[C@@H](O)C(n2cnc3c(NC4CCOC4)ncnc32)O[C@@H]1COc1cccc(F)c1 (single isomer, unassigned)", "uom": "%", "value": 70}
{"molecule": "O[C@@H]1[C@@H](CSc2nc3ccccc3s2)OC(n2cnc3c(NC4CCCC4)ncnc32)[C@@H]1O (stereo not given in full)", "uom": "%", "value": 95}
{"molecule": "Cc1csc(SC[C@H]2OC(n3cnc4c(NC5CCOC5)ncnc43)[C@H](O)C2O)n1 (single isomer, unassigned)", "uom": "%", "value": 86}
{"molecule": "OC[C@H]1O[C@@H](n2cnc3c(NC4CCCC4)ncnc32)[C@H](O)[C@@H]1O", "uom": "%", "value": 100}
{"molecule": "OC1[C@@H](O)C(n2cnc3c(NC4CCOC4)ncnc32)O[C@@H]1CSc1c(Cl)cccc1Cl (single isomer, unassigned)", "uom": "%", "value": 89}
{"molecule": "COc1ccc2sc(SC[C@H]3OC(n4cnc5c(NC6CCCC6)ncnc54)[C@H](O)[C@@H]3O)nc2c1 (stereo not given in full)", "uom": "%", "value": 94}
{"molecule": "OC1[C@@H](O)C(n2cnc3c(NC4CCOC4)ncnc32)O[C@@H]1COc1ccc(F)cc1 (single isomer, unassigned)", "uom": "%", "value": 71}
{"molecule": "Cn1ccnc1SC[C@H]1OC(n2cnc3c(NC4CCOC4)ncnc32)[C@H](O)C1O (single isomer, unassigned)", "uom": "%", "value": 84}
{"molecule": "OC1[C@@H](O)C(n2cnc3c(NC4CCOC4)ncnc32)O[C@@H]1CSc1ccccc1F (single isomer, unassigned)", "uom": "%", "value": 72}

* * *

- protocol details: Elimination half-life after IV dosing at 0.5 mg/kg in rat
- Format: ADME, organism-based
- Set-up: dose 0.5 mg/kg, route intravenous
- measurement conditions: in vivo

{"molecule": "OC1[C@@H](O)C(n2cnc3c(NC4CCOC4)ncnc32)O[C@@H]1COc1ccccc1F (single isomer, unassigned)", "half-life": "18 min"}

* * *

Recorded Ki low by entry
- study system: UniProtKB P47745
- protocol details: Binding affinity against adenosine A1 receptor using [3H]CPX in guinea pig DDT membrane
- Type: cell membranes

{"compound": "Cc1cc(COC[C@H]2OC(n3cnc4c(NC5CCOC5)ncnc43)[C@H](O)C2O)no1 (single isomer, unassigned)", "study system": "UniProtKB P47745", "measurement qualifier": "=", "Ki low / nM": 192}
{"compound": "OC1[C@@H](O)C(n2cnc3c(NC4CCOC4)ncnc32)O[C@@H]1COCc1ccccc1 (single isomer, unassigned)", "study system": "UniProtKB P47745", "measurement qualifier": "=", "Ki low / nM": 165}
{"compound": "O[C@@H]1[C@@H](COc2ccccc2F)OC(n2cnc3c(NC4CCCC4)ncnc32)[C@@H]1O (stereo partly specified)", "study system": "UniProtKB P47745", "measurement qualifier": "=", "Ki low / nM": 4390}
{"compound": "Cc1csc(SC[C@H]2OC(n3cnc4c(NC5CCOC5)ncnc43)[C@H](O)C2O)n1 (single isomer, unassigned)", "study system": "UniProtKB P47745", "measurement qualifier": ">", "Ki low / nM": 5000}
{"compound": "Cn1ccnc1SC[C@H]1OC(n2cnc3c(NC4CCCC4)ncnc32)[C@H](O)[C@@H]1O (stereo partly specified)", "study system": "UniProtKB P47745", "measurement qualifier": "=", "Ki low / nM": 1340}
{"compound": "OC1[C@@H](O)[C@H](n2cnc3c(NC4CCOC4)ncnc32)O[C@@H]1CSc1ccc(F)cc1F (single isomer, unassigned; 26)", "study system": "UniProtKB P47745", "measurement qualifier": "=", "Ki low / nM": 494}
